# assayInfo: yeast display, Sf9 membrane polyspecificity reagent, FACS + sequencing; frameworks hold sequencing errors
reportedProperty: polyreactivity (PSR sort gate)

chainSequence: QVQLVESGGGLVQAGGSLRLSCAASGFTFYYYAMGWYRPAPGKERELVAGITGSGGRTYYADSVKGRFTISRDNAKITVYLQMNSLKPEDTAVYYSNARSLWYDYWGQGTQVTVSS
experimentalValue: high polyreactivity

chainSequence: QVQLVESGGGLVQAAGSLRLSCAASGFTFYSNVMGWYRQAPGKERELVAAITGRGSRTYYEDSVNGRFTISRDNAKNTVYLQMNSLKTEDTPVYYCAARYTNYGGYYWGQGTQVTVSS
experimentalValue: high polyreactivity

###

# assayInfo: yeast display, Sf9 membrane polyspecificity reagent, FACS + sequencing; frameworks hold sequencing errors

chainSequence: QVQHVESGGGLVQAGGSLRLSCAASGRIFGTNAMGWYRQAPGKERELVAAINGSDSSTYYADSVKGRFTISRDNAKNTVYLQMNSLKPEDTAVYYCNADWSGAPERSTDGYDYWGQGTQVTVSS
polyreactivity (PSR sort gate): low polyreactivity
--
chainSequence: QVQLVESGGGLVQAGGSLRISCAASGRIFAGYSMGWYRQAPGKERELVAAIRTRGGSTYYADSVKGRFTISRDKAKNTVYLQMNSLKPEDTEVYYCAATPTWYIWYTYDYWGQGPQVTVSS
polyreactivity (PSR sort gate): high polyreactivity
--
chainSequence: QVQLVESGGGLVQAGGSLRLSCAASGSTFTDYAMGWYRQAPGKERELVAAITNSGSSTNYEDSVKGRFTISRDNAKNTVYLQMNSLKPEDTAVYYCNASSYPWEYYYLYYGYDYWVQGTQVTVSS
polyreactivity (PSR sort gate): low polyreactivity
--
chainSequence: QVQLVESGGGLVQAGGSLRLTCAASGRIAWYRQAPGKERELVAAITSGDRTNYADSVKRRFTISRDNAKNTVYFQMNSLKPEDTAVYYCATEPSWYHGFIDPRGYWGQGTQVTVSS
polyreactivity (PSR sort gate): low polyreactivity
--
chainSequence: QVQLVESGGGLVQAGGSLRLRCAASGSIITRYAMGWYRQAPGKERDLVAAITASGGRTYYADSVKGRFTISRDNAKNTVYFQMNSLKPEDTAVYYCNTFWRYTSQLPYDYWGQGTQVNVSS
polyreactivity (PSR sort gate): high polyreactivity
--
chainSequence: QVQLVESGGGLVQAGGSLRLSCAASGSTVSDNAMGWYRQAPGKERELVAAINWGGSNTYYADSVKGRFTISRDNAKNTVYLQMNSLKPEDTAVYYFNADIPRRTNRHYLYDYWGQGTQVTVSS
polyreactivity (PSR sort gate): low polyreactivity

###

# assayInfo: yeast display, Sf9 membrane polyspecificity reagent, FACS + sequencing; frameworks hold sequencing errors

chainSequence: QVQLVESGGGLVQAGGSLRLSCAASGRTFYNYAMGWYRQAPGKERELVATINWSGGRTYYADSVKGRFTISRDNAKNTVYLQMNSLKAEDTAVYYCAKTWLYQSNEYGYWGQGTQVTVSS
polyreactivity (PSR sort gate): low polyreactivity
--
chainSequence: QVQLVESGGGLVQAGGSLRLSCAASGSIFDLYAMGWYRQAPGKERELVDAISSGATTNYADSVKGRFTISRDNAKNTVYLQMNSLKPEDTAVYYCAKYYRISSLYVIVSAYDYWGQGTQVTVSS
polyreactivity (PSR sort gate): low polyreactivity
--
chainSequence: QVQLVESGVGLVQAGGSLRLSCAASGSTFWSYTMGWYRQAPGKERELVARIRTTGGSTYADSVKGRFTISRDNAKNTVYLQMNSLKPEDTAVYYCAKEGWLRYYPWYGGDYWGQGTQVTVSS
polyreactivity (PSR sort gate): high polyreactivity
--
chainSequence: QVQLVESGVGLVQAGGSLRLSCAASGNTISYNAMGWSRQAPGKERELVAAIRWSGGSTNYADSVKGRFTISRDNAKNTVYLQMNSLKPEDTAVYYCNARYASTNYGWISYYWGQGNQVTVSS
polyreactivity (PSR sort gate): high polyreactivity
--
chainSequence: QVQLVESGGGLVQAGGSLRLSCAASGRIYYYYTMGWYRQAPGKERELVAGISRSGDRTYYADSVKGRFTISRDIAKNTVYLQMNSLKPEDTAVYYCATRWSSARMDYWGQGTQVTVSS
polyreactivity (PSR sort gate): high polyreactivity

###

# assayInfo: yeast display, Sf9 membrane polyspecificity reagent, FACS + sequencing; frameworks hold sequencing errors
reportedProperty: polyreactivity (PSR sort gate)

chainSequence: QVQLVESGGGLVQAGGSLRLSCAASGFTFQGNAKGCYIQAPGKERELVGAISYDGGSTYYADSVKGRFTISRDNAKNTVYLQMNSLKPEDTAVYYCAAYVGTWYYYWGQGTQVTVSS
experimentalValue: high polyreactivity

chainSequence: QVQLVESGGGLVQAGGSLRLSCAASGITFPINAMGWSRQAPGKEREFVATISFSGASTYYADSVKGRFTISRDNAKNTVYLQMNSLKPEDTAVYYCAADLSLSTGGRAFPTYGYWGQGTQVTVSS
experimentalValue: high polyreactivity

chainSequence: QVQLVESGGGLLQAGGSLRLSCAASGSIFRRNAMGWYRQAPGKERELVAAITTRGSRTTYADSVKGRFTISRDNAKNTVYLQMNSLKPEDTAVYYCAARQHFSYSFHVAYDYWGQGTQVTVSS
experimentalValue: high polyreactivity

chainSequence: QVQLVESGGGLVQAGGSLRLSCAASGSIFVINAMGWYRQAPGKERELVAAISYSGTGTYYADSVKGRFPISRDNAKITVYLQMNSLKPEDTAVYYCAADYYYRYRIYDYWGHGTQVTVSS
experimentalValue: low polyreactivity

chainSequence: QVQLVESGGGLVQAGGSLRLSCAASGFTFARYTMGWYRQAPGKERELVAAISSRGSSTYYADSVKGRFTISRDNAKNTVFLQMNSLKPEDTAVYYCAASPYDTQSLDYDYWGQGTQVTVSS
experimentalValue: high polyreactivity

chainSequence: QVQLQESGGGLLQAGGTLRLSCAASGSIFGYSGMGWYRQAPGKERELVAGIDYGTITNYADSVKGRFTISRDNAKNTVYLQKYSLKPADTAVYYCATDIHSVHNHRDKHVYDYWGQGTQVTVSS
experimentalValue: low polyreactivity

chainSequence: QVQLVESGGGLVQAGGSLRLSCAASGSTFIPNAMGWYSQAPGKERELVAAISTGGSTNYADSVKGRFTISRDNAKNTVYLQMNSLKPEDTAVYYCNARRGYYNPGRRFYYWGQGTQVTVSS
experimentalValue: low polyreactivity

chainSequence: QVHLVESGGGLVQAGGSLRLSCAASGIIFPSYVMGWYRQAPGKEWELVARISARGGRTYYADSVKGRFTISRDNAKNTVYLQMNSLKPEDTAVYYCAARWGITTWYDYWGQGTQVTVSS
experimentalValue: high polyreactivity

chainSequence: QVQLVESGGGLVQAGGSLRLSCAASGSIFYNYAMGWYRQAPGKEREFVAAISWSGDTTYYADSVKGRFTISRDNAKNTVYLQMNSLKPEDTAVYYCAAESYIWFWRPYYYWGQGTQVTVSS
experimentalValue: low polyreactivity

chainSequence: QVQLVESGGGLVQAGGSLRLSCAASGLTFYVYGMGWYRQAPGKERELVASITSGGNTYYADSVKGRFTISRDNAKNTVYLQMNSLKPEDTAVYYCAVTAIALYYSSGYYWGQGTQVTVSS
experimentalValue: low polyreactivity

chainSequence: QVQLVESGGGLVQAGGSLRLSCAASGSTFGYYAMGWYRQAPGKERELVAAITDSGGITHYADSVKGRFTISRDNAKNTVYLQMNSLKPEDTAVYYCYARYLGYGWFDYWGQGTQVTVSS
experimentalValue: low polyreactivity

chainSequence: AVQLVESGGGLVQAGGSLRLSCAASGSTCTGMTWDGRHRRLGRKELVAGIRSAGSTNYADSVKGRFTISGDNAKITVYLQLNSLKPEDTAVYYCAKDYRWVWRKYGYWGQGTQVTVSS
experimentalValue: low polyreactivity

chainSequence: QFQLVDSGGGLVQAGGSLRLSCAASGRIFSTNAMGWYRLAPGKEWELDAAINWSTGSYVLRRSVKGRFTISRDNAKNTVYLQMNSLKTEDTAVYYCAARVTVVGDYYWGQGTQVTVSS
experimentalValue: high polyreactivity

chainSequence: QVQLVESGGGLVQAGGSLRLSCAASGGTFRYNAMGWYRQAPGKERELVAAIRWSGGRTYYADSVKGRFTISRDNAKNTVFLQINSLKPEDTAVYYCAALYRGYAVAASYYLWGLGTQVTVSS
experimentalValue: high polyreactivity

chainSequence: QVQLVESGGGLVQAGGSLRLSCAASGLIFRRYAMGWYRTAPGKERELVAAISSSGSTYYADSVKGRFTISRDNAKNTVYLQMNSLKPEDTAVYYCNKVTGRNADRYGYWGQGTQVTVSS
experimentalValue: high polyreactivity

###

# assayInfo: yeast display, Sf9 membrane polyspecificity reagent, FACS + sequencing; frameworks hold sequencing errors

chainSequence: QVQLVESGGGLVQAGGSLRLSCAASGRTFKTYAMGWYSQAPGKERELVAAISRDGRTYYADSVKGRFTISRDNAKNTVYLQMNSLKPEDTAVYYCNKRSYRKGDYWGQGTQVTVSS
polyreactivity (PSR sort gate): low polyreactivity
//
chainSequence: QVQLVESGGGLVQAGGSLRLSCAASGITFSRNAMGWYRQAPGKERELVAAINWTGGNTYYADSVKGRFTISRDNAKNTVYLQMNSLKPEDTAVYYCAADRRWFVWGLGYWGQGTQVTVSS
polyreactivity (PSR sort gate): low polyreactivity
//
chainSequence: QVQLVESGGGLVQAGGSLRLSCAASGFIFDSYAMGWYRQAPGKVRELVATISRRGSSTYYADSVKGRFTISRDNAKNTVYLQMNSLKPEDNAVYYCAAGSISYYYKLYWGGYWGQGTQVTVSS
polyreactivity (PSR sort gate): high polyreactivity
//
chainSequence: QVQLVESGGGLVQAGGSLRLSWAASGFTLTRNAMGWYTQAPGKERELVAAISWSGGTTYYADSVKGRFTISRDNAKNPVYLQMNSLKRDDTAVYYCNTASWRAQYYYWGQGTRVTVSS
polyreactivity (PSR sort gate): high polyreactivity
//
chainSequence: QVQLVESGGGLVQAGGSLRLSCAASGRTFYQYAMGWYRQAPGKERELVAAISWSDGSTSYADSVKGRFTISRDNAKNTVYLQMNSLKQEDTAVYYCAKDWTGTKAIEYDYWGQGTQVTVSS
polyreactivity (PSR sort gate): low polyreactivity
//
chainSequence: QVQLVESGGGLVQAGGSLRLSCAASGRTFQYYAMGWYRQAPGKERELVAAITSGGSTYYADSVKGRFTISRDNAKNTVYLQMNSLKTEDTAVYYCAADFLYYSSGGKMDYWGQGTQVTVSS
polyreactivity (PSR sort gate): low polyreactivity
//
chainSequence: QVQLVESGGGLVQAGGSLRLSCAASGRIIVNNAMGWYRQAPGKERELVAAITRRGGSTYYADSVKGRFTISRDNAKNTVYLQMNSLKPEDTAVYYCARSNQRTVYVASDYWGQGTQVTVSS
polyreactivity (PSR sort gate): high polyreactivity
//
chainSequence: QVQLQESGGGLVQAGGSPRLSCAASDNIFPDSGMCWYRQAPGKERELVATIGFGATRNYADSVKGRFTISRDNAKNTVYLQMNSLQPEDTAVYYCAADPLNYQYFCYWGQGTQVTVSS
polyreactivity (PSR sort gate): low polyreactivity
//
chainSequence: QVQHVESGGGLVQAGGSLRLSCAASGSTFANNAMGWYRQAPGKERELVASITTDGSTNYADSVKGRFTISRDNAKNPVYLQMNSLKPEDSAVYYCAADYHTPSSFAPIELYDYCGQGTQVTVSS
polyreactivity (PSR sort gate): low polyreactivity
//
chainSequence: QVQLVESGGGLVQAGGSLRLSCAASGRTFYIYAMGWYRQAPGKERELVAAITYSSGTTYYADSVKGRFTISRDNAKNTVYLQMNSLKPEDTAVYYCAADVGFNQFDYWGQGTQVTVSS
polyreactivity (PSR sort gate): low polyreactivity
//
chainSequence: QVQLVESGGGLVQAGGSLRLSCAASGYIFTVYAMGWYRQAPGKERELVAAINWSDGSTYYADSVKGRFTISRDNAKNTVYLQMNSLKPEDTAVYYCAAESRYQRYDYWGQGTQVTVSS
polyreactivity (PSR sort gate): high polyreactivity
//
chainSequence: QVQLVESGGGLVQAGGSLRLSCAASGYTFYANAMGWYRQAPGKEREFVASITWSGGSTYYPDSVKGRFTISRDNAKNTVYLQMNSLKPEDTAVYYCAAESWFKYDYWGQGTQETVSS
polyreactivity (PSR sort gate): low polyreactivity
//
chainSequence: QVQLVESGGGLVQAGGSLRLSCAASGFTFRKNAMGWYRHAPGKERELVAVISSSGGSTSYADSVKRRFTISRDNAKNTVYLQMNSLKPEDTAVYYCAAGSSRLRALYNYWGQGSQVTVSS
polyreactivity (PSR sort gate): high polyreactivity
//
chainSequence: QVQHVESWGGIVQARGSLRLSCAASGSTFSYNALGWYRQPPGKERELVAALTCSGASTYYAYSVKGRFTISRDKAKNTVYLQLSSMNPDDTAVYYCNAPDGPGPNAYYEFDYWGQGTQVTVSS
polyreactivity (PSR sort gate): low polyreactivity
//
chainSequence: QVQLEESGGGLVQAGGSLRISCAAAGSTFRSNAMGWYRPAPRKERELVAAINSGGSTYYADSVKGRFTISRDNAKNTVYLQMNSLKPEDTAVYYCAARYYTPFGTYRQNIRMYYWGQGTQVTVSS
polyreactivity (PSR sort gate): high polyreactivity

Taken from the nanobody polyreactivity screen of Harvey et al. (2022).
